- Target of assay: T1, DVL3, Q92997
- T1 sequence (Q92997 244-331, limits assumed, looked up): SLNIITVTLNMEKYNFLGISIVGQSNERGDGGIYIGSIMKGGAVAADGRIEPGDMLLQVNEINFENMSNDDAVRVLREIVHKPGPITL
- Procedure summary: holdup assay
- Parameters: key: below the threshold = too weak to quantify, mostly under pKd 3.1 to 4
- Cond: plain residues with an end cap or a label only (N-terminal biotin on a linker: ado-ado)
Metric name: pKd

| Binder | Metric name | Result |
| --- | --- | --- |
| PRISRSQSEL [CCDC134, Q9H6E4] | pKd | below the threshold |
| LRSPRTPSEV [OR10G3, Q8NGC4] | pKd | below the threshold |
| LPHGHSTTRV [NLGN4X, Q8N0W4] | pKd | below the threshold |
| RHGSCVETSL [TMEM151B, Q8IW70] | pKd | below the threshold |
| VDSTVKVWTC [TRAF7, Q6Q0C0] | pKd | 3.85 |
| DDEDRLVIEI [ZNF831, Q5JPB2] | pKd | below the threshold |
| EVNETDDTKM [KCNJ1, P48048] | pKd | below the threshold |
| YYKRPVQEWV [MMP24, Q9Y5R2] | pKd | 4.38 |
| LGRSTPQSEV [DGKH, Q86XP1] | pKd | below the threshold |
| IKAIVDLTGL [TRAF2, Q12933] | pKd | below the threshold |
